system: L. reuteri oxidoreductase; assay: Solvent stability: enzyme activity after contact with organic solvents; format: biochemical, Lactobacillus reuteri; settings: water-miscible solvent mixture or buffer; enzyme 1:400; room temperature; 24 h; starting value 100%
MEASURED METRIC: Activity 24 h

INSERT INTO measurements (molecule, target_desc, reported_result) VALUES
  ('CC(C)O [30% Isopropanol, Isopropanol]', 'L. reuteri oxidoreductase', '0%'),
  ('CCO [20% EtOH, EtOH]', 'L. reuteri oxidoreductase', '80%'),
  ('CC(C)O [5% Isopropanol, Isopropanol]', 'L. reuteri oxidoreductase', '77%'),
  ('C[S+](C)[O-] [10% DSMO]', 'L. reuteri oxidoreductase', '80%'),
  ('CCO [30% EtOH, EtOH]', 'L. reuteri oxidoreductase', '75%'),
  ('CCO [10% EtOH, EtOH]', 'L. reuteri oxidoreductase', '70%'),
  ('CC(C)O [10% Isopropanol, Isopropanol]', 'L. reuteri oxidoreductase', '85%'),
  ('CC(C)O [20% Isopropanol, Isopropanol]', 'L. reuteri oxidoreductase', '100%'),
  ('CCO [5% EtOH, EtOH]', 'L. reuteri oxidoreductase', '65%'),
  ('C[S+](C)[O-] [20% DSMO]', 'L. reuteri oxidoreductase', '80%');

###

system: L. reuteri oxidoreductase; assay: Solvent stability: enzyme activity after contact with organic solvents; format: biochemical, Lactobacillus reuteri; conditions: water-immiscible solvent, same volume as buffer; room temperature; 8 h; activity from the aqueous phase
Listing: Activity 8 h of selected molecules
MEASURED METRIC: Activity 8 h (%)

INSERT INTO results (molecule, measured_metric, units_label, reported_result) VALUES
  ('CCCCCCC [Heptane]', 'Activity 8 h', '%', 113),
  ('ClC(Cl)Cl [Chloroform]', 'Activity 8 h', '%', 6),
  ('CCCCOC(C)=O [Butyl acetate]', 'Activity 8 h', '%', 74),
  ('C1CCCCC1 [Cyclohexane]', 'Activity 8 h', '%', 113),
  ('COC(C)(C)C [MTBE]', 'Activity 8 h', '%', 90),
  ('CCOC(C)=O [Ethyl acetate]', 'Activity 8 h', '%', 0),
  ('CCOCC [Diethyl ether]', 'Activity 8 h', '%', 32),
  ('CC(C)OC(C)C [Diisopropyl ether]', 'Activity 8 h', '%', 94),
  ('CCCCCC [Hexane]', 'Activity 8 h', '%', 115);

###

tested on: recombinant Lactobacillus reuteri oxidoreductase; assay: Substrate spectrum in standard measurement mixture; format: biochemical; settings: Oxidation; activity with ethyl 2-oxo-4-phenylbutyrate set to 100%
Listing: Relative activity % of selected molecules
MEASURED METRIC: Relative activity % (%)

INSERT INTO assay_data (molecule, measured_metric, reported_result) VALUES
  ('CCOC(=O)[C@H](C)O [Ethyl L-lactate]', 'Relative activity %', 0),
  ('O=C(O)C[C@H](O)CCl [S-4-Chloro-3-hydroxy-butyrate]', 'Relative activity %', 0),
  ('CCOC(=O)[C@H](O)CCc1ccccc1', 'Relative activity %', 0),
  ('CCOC(=O)[C@@H](C)O [Ethyl D-lactate]', 'Relative activity %', 0),
  ('CC(C)O [2-Propanol]', 'Relative activity %', 0);
